Recorded solubility kinetic for the following compounds
# Assay setup: buffer; pH 7.4; 200.0 µM
Assay readout: solubility kinetic

1. CSc1nc(-c2cccs2)c(C#N)c(=O)[nH]1; 37.3 µg/mL
2. CC1CCCC(NC(=O)COC(=O)COc2ccccc2Cl)C1C (stereo not given); 31.1 µg/mL
3. COc1ccc(OCCNC(=O)/C=C/c2ccccc2)cc1; 4.9 µg/mL
4. N#C/C(=C\c1ccc(O)c(O)c1)C(=O)N1CCCC1; 37.3 µg/mL
5. O=C1/C(=C/Nc2ccc3c(c2)OCO3)CCc2ccccc21; 1.4 µg/mL
6. Cl.NCC1CC2c3ccccc3C1c1ccccc12 (stereo not given); > 40.8 µg/mL
7. CC1CCCC(NC(=O)C2COc3ccccc3O2)C1C (stereo not given); 17.2 µg/mL
8. CC(=O)Nc1ccccc1S(=O)(=O)CC1CC1(Cl)Cl (stereo not given); > 48.3 µg/mL
9. CCCN1CCN(S(=O)(=O)c2cn(C)nc2C)CC1; > 43 µg/mL
10. Cc1ccc(Cl)cc1NC(=O)COC(=O)CCN1C(=O)C2CC=CCC2C1=O (stereo not given); > 60.7 µg/mL
11. Cc1ccsc1C(=O)Nc1ccccc1N1CCCC1; 27.6 µg/mL
12. O=C(CNC(=O)c1ccc(Cl)cc1)c1ccc(Br)cc1; < 0.8 µg/mL
13. CCc1cccc(C)c1NC(=O)COC(=O)CC1CCCC1; 15.7 µg/mL
14. O=C(NCc1cccnc1)Nc1ccccc1C(F)(F)F; > 44.3 µg/mL
15. C=CCN=C1S/C(=C\c2ccc(Cl)cc2)C(=O)N1CC=C; 2 µg/mL
16. CCOC(=O)c1cnc(Cc2ccccc2)[nH]c1=O; 37.3 µg/mL
17. CCOP(=O)(OCC)C(Nc1ccccc1)c1cccnc1 (stereo not given); > 48 µg/mL
18. COc1ccnc2c1c(=O)n(Cc1cccc(F)c1)c(=O)n2C; 37.9 µg/mL
19. COc1ccc(S(=O)(=O)N2CCCCCC2)cc1C(=O)OCC(=O)NC1CCS(=O)(=O)C1 (stereo not given); > 73.3 µg/mL
20. O=C(CNS(=O)(=O)c1ccc(F)c(Cl)c1)NCCc1ccccc1; 5.1 µg/mL
21. N#Cc1sc(C(N)=O)c(-c2ccccc2)c1-c1ccccc1; < 0.3 µg/mL
22. CC(=O)N/C(=C\c1ccc(F)cc1)C(=O)OCc1ccccc1; > 47 µg/mL
23. COc1ccc(NC(=S)N(CCO)Cc2ccccc2)cc1; 44.7 µg/mL
24. O=C(CNC(=O)C1CCCCC1)NC1CCCCC1; > 40 µg/mL
25. N#C/C(=C\c1c(F)cccc1Cl)C(=O)NC1CC1; > 39.7 µg/mL
26. N#Cc1c(-c2ccccc2)nc(SCc2ccc(Cl)cc2)[nH]c1=O; 51.9 µg/mL
27. Cc1cc(-n2c(C)cc(C(=O)COc3ccc(Cl)cc3C(N)=O)c2C)no1; 2.7 µg/mL
28. COC(=O)c1ccc(NCC(=O)Nc2cc(C)cc(C)c2)cc1; 5.4 µg/mL
29. CCOc1ccc(CCNC(=O)CCC(=O)c2cccs2)cc1OCC; > 56.3 µg/mL
30. O=C(NCc1ccc(F)cc1)N1CCc2ccccc2C1; 39.3 µg/mL
31. COc1ccc(C2NC(=O)CCC2[N+](=O)[O-])c(OC)c1OC (stereo not given); > 46.5 µg/mL
32. NC1=NC(=O)/C(=C/c2cccc(F)c2)S1; 2.7 µg/mL
33. CCCCOc1ccc(Cn2c(=O)oc3ccccc32)cc1; < 0.6 µg/mL
34. O=C(c1ccc([N+](=O)[O-])s1)N1CCN(c2ccccn2)CC1; 42.7 µg/mL
35. CN(C)CCCNc1nc(N)c([N+](=O)[O-])c(NCc2ccccc2)n1; 44.3 µg/mL
36. Cc1ccc(C(=O)NC(=S)N(C)C2CCCCC2)cc1Br; 1.1 µg/mL
37. OCc1ccccc1OCCCOc1cccc2cccnc12; > 46.4 µg/mL
38. O=C(O)c1cc(-c2ccco2)nc2cc3ccccc3cc12; > 43.4 µg/mL
39. CCCCN(C(=O)Oc1ccccc1)C1CCS(=O)(=O)C1 (stereo not given); > 46.7 µg/mL
40. CSCCCN1CCCC(CO)(Cc2ccccc2F)C1 (stereo not given); > 46.7 µg/mL
41. COc1ccc(N2C(=O)CC(N3CCCCC3)C2=O)cc1 (stereo not given); > 43.3 µg/mL
42. Cl.Clc1ccc(-c2ccc(CNCC3CCCO3)o2)cc1 (stereo not given); > 49.2 µg/mL
43. O=C(CSc1nccn1-c1ccccc1)NO; 32.1 µg/mL
44. O=C(COC(=O)c1ccc(Br)cc1)NCC1CCCO1 (stereo not given); > 51.3 µg/mL
45. COCCNc1ncnc2c1cnn2Cc1ccccc1Cl; > 47.7 µg/mL
46. Cc1ccc(C(=O)NC2CCC(C)CC2)s1 (stereo not given); 10.2 µg/mL
47. CCN1CCN(C(=O)/C=C/c2ccc(OC)cc2)CC1; > 41.2 µg/mL
48. CCCc1nc2ccccc2n1C(=S)SC; 12.3 µg/mL
49. Cc1ccccc1NC(=O)NCc1cccnc1; > 36.2 µg/mL
50. O=C(c1ccccc1)N1CCN(c2ncccn2)CC1; > 40.2 µg/mL

Where these numbers come from: PubChem BioAssay AID1996
